# assayInfo: mtPTP inhibition via calcium retention, dose response, biochemical, dry powder samples, uHTS hits, Calcium Green-5N (AID 743360)
# measurementSetup: isolated mitochondria, Ca retention capacity
The source made the active and inactive calls.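 How the source made its calls: active means calcium retention capacity relative to untreated control above about 1.1 ratio (limit read from the data); inactive means the rest.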
Entries and their measured CRC/CRC0 ratio at 12.5 uM (higher = more inhibition) follow.
measuredParameter: CRC/CRC0 ratio at 12.5 uM (higher = more inhibition)

| molecule | testResult |
| --- | --- |
| CN1CCN(CCc2ccc(NS(=O)(=O)c3ccc(F)c(Cl)c3)cc2)CC1 | 1.08 (inactive) |
| COc1ccc(Cl)c(C(=O)Nc2ccc(CCN3CCN(C)CC3)cc2)c1 | > 1 (inactive) |
| COc1ccc(C(=O)CCN2CCCC(C)C2)cc1 (stereo unspecified) | 1.07 (inactive) |
| O=C(Nc1ccc(CN2CCCCC2)cc1)c1cc(Cl)ccc1O | 1.1 (active) |
| COc1ccc(Cl)cc1S(=O)(=O)Nc1ccc(CCN2CCN(C)CC2)cc1 | 1.03 (inactive) |
| COc1ccc(Cl)cc1C(=O)Nc1cccc(CN2CCNCC2)c1 | 1.52 (active) |
